# targetSystem: KRAS G12D (Homo sapiens (Human), UniProt P01116+P62937, G12D)
# Sequence (P01116-2 other isoform, or with tags, fused parts or gaps G12D, one chain of several): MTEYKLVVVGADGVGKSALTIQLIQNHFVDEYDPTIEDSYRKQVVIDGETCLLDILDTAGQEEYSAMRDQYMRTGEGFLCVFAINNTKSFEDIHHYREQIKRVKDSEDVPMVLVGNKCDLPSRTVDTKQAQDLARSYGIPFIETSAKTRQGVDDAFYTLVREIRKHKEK
# experiment: Ras-Raf (BRAF RBD) disruption / FRET / MOA assay, KRAS G12D
# Type: biochemical
# appliedConditions: Ras-Raf disruption/FRET/MOA assay; class symbols; read-out: KRAS G12D FRET data IC50
pIC50: −log10 of the molar value.
measureName: pIC50

In plain terms, C=CC(=O)N1CC[C@H](C(=O)N(C)[C@H](C(=O)N[C@H]2Cc3cccc(c3)-c3ccc4c(c3)c(c(-c3cccnc3[C@H](C)OC)n4CC#N)CC(C)(C)COC(=O)[C@@H]3CCCN(N3)C2=O)C(C)C)C1 has a documented pIC50 of 5.00 to 6.00

In plain terms, C=CC(=O)N1C[C@@H](C)N(C(=O)N(C)[C@H](C(=O)N[C@H]2Cc3nc(cs3)-c3ccc4c(c3)c(c(-c3cccnc3[C@H](C)OC)n4CC)CC(C)(C)COC(=O)[C@@H]3CCCN(N3)C2=O)C(C)C)[C@H](C)C1 (atropisomer, axis not shown) has a documented pIC50 of 7.00 to 8.00

In plain terms, CCn1c(-c2cccnc2[C@H](C)OC)c2c3cc(ccc31)-c1csc(n1)C[C@H](NC(=O)[C@H](C(C)C)N(C)C(=O)N(C)C1CN(C(=O)/C=C/[C@H]3CCCN3C)C1)C(=O)N1CCC[C@H](N1)C(=O)OCC(C)(C)C2 (atropisomer, axis not shown) has a documented pIC50 of 5.00 to 6.00

---
In plain terms, CCn1c(-c2cccnc2[C@H](C)OC)c2c3cc(ccc31)-c1csc(n1)C[C@H](NC(=O)[C@H](C(C)C)N(C)C(=O)[C@H]1CCN(C(=O)C#CCN3CCOCC3)C1)C(=O)N1CCC[C@H](N1)C(=O)OCC(C)(C)C2 (atropisomer, axis not shown) has a documented pIC50 of < 5.00

###

# targetSystem: K-Ras G13C (Homo sapiens (Human), UniProt P01116+P62937, G13C)
# Sequence (P01116-2 other isoform, or with tags, fused parts or gaps G13C, one chain of several): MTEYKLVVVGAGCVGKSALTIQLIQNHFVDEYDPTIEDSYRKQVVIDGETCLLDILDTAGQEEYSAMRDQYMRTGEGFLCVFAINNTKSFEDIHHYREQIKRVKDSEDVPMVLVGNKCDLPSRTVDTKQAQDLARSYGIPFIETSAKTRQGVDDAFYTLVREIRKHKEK
# experiment: Ras-Raf (BRAF RBD) disruption / FRET / MOA assay, KRAS G13C
# Assay type: biochemical
# appliedConditions: KRAS G13C; Ras-Raf disruption/FRET/MOA assay; read-out: IC50* KRAS G13C FRET data
measureName: IC50

Measured IC50 for this entry C=C(C)C(=O)N1CC(N(C)C(=O)N(C)[C@H](C(=O)N[C@H]2Cc3nc(cs3)-c3ccc4c(c3)c(c(-c3cccnc3[C@H](C)OC)n4CC)CC(C)(C)COC(=O)[C@@H]3CCCN(N3)C2=O)C(C)C)C1 (atropisomer, axis not shown) [Example A360] on K-Ras G13C (Homo sapiens (Human), UniProt P01116+P62937, G13C): 100 to 1000 nM

Measured IC50 for this entry CO[C@@H](C)c1ncccc1-c1c2c3cc(ccc3n1CC(F)(F)F)N1CCO[C@@H](C[C@H](NC(=O)[C@H](C(C)C)N3CC[C@]4(CCN(C(=O)C#CC(C)(C)N(C)C)C4)C3=O)C(=O)N3CCC[C@H](N3)C(=O)OCC(C)(C)C2)C1 (atropisomer, axis not shown) [Example A642] on K-Ras G13C (Homo sapiens (Human), UniProt P01116+P62937, G13C): 100 to 1000 nM

Measured IC50 for this entry C=CC(=O)N(C)CCCC(=O)N(C)[C@H](C(=O)N[C@H]1Cc2cc(O)cc(c2)-c2ccc3c(c2)c(c(-c2cccnc2COC)n3CC)CC(C)(C)COC(=O)[C@@H]2CCCN(N2)C1=O)C(C)C [Example A101] on K-Ras G13C (Homo sapiens (Human), UniProt P01116+P62937, G13C): 100 to 1000 nM

---
Measured IC50 for this entry C=CS(=O)(=O)N1CC[C@H](C(=O)N(C)[C@H](C(=O)N[C@H]2Cc3cc(O)cc(c3)-c3ccc4c(c3)c(c(-c3cncnc3)n4CC)CC(C)(C)COC(=O)[C@@H]3CCCN(N3)C2=O)C(C)C)C1 [Example A172] on K-Ras G13C (Homo sapiens (Human), UniProt P01116+P62937, G13C): 10 to 100 nM

###

The entries below are paired with their reported IC50.
# targetSystem: KRAS G12S (Homo sapiens (Human), UniProt P01116+P62937, G12S)
# Sequence (P01116-2 other isoform, or with tags, fused parts or gaps G12S): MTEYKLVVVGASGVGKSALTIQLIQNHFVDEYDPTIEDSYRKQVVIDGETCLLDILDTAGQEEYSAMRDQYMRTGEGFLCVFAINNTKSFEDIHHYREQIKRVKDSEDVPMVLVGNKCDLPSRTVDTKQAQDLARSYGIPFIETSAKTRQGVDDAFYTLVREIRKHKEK
# Sequence (P62937 whole entry): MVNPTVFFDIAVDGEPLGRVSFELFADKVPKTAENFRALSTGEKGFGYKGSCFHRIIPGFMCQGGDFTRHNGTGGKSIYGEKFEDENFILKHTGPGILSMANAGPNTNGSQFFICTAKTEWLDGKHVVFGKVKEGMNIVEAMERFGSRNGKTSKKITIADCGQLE
# experiment: Ras-Raf (BRAF RBD) disruption / FRET / MOA assay, KRAS G12S
# Type: biochemical
# appliedConditions: Ras-Raf disruption/FRET/MOA assay; class symbols; read-out: KRAS G12S FRET data IC50

In plain terms, C=CC(=O)N1CCOC2(CCN(C(=O)N(C)[C@H](C(=O)N[C@H]3Cc4cccc(c4)-c4ccc5c(c4)c(c(-c4cccnc4[C@H](C)OC)n5CC(F)(F)F)CC(C)(C)COC(=O)[C@@H]4CCCN(N4)C3=O)C(C)C)CC2)C1 (atropisomer, axis not shown) [Example A608] has a documented IC50 of 100 to 1000 nM

Continue with the next molecule.
In plain terms, C=CC(=O)N1CCOC2(CCN(C(=O)N(C)[C@H](C(=O)N[C@H]3C[C@H]4CN(CCO4)c4ccc5c(c4)c(c(-c4cccnc4[C@H](C)OC)n5CC)CC(C)(C)COC(=O)[C@@H]4CCCN(N4)C3=O)C(C)C)CC2)C1 [Example A564] has a documented IC50 of 100 to 1000 nM

###

The entries below are paired with their reported pIC50.
# targetSystem: NRAS Q61K (Homo sapiens (Human), UniProt P01111+P62937, Q61K)
# Sequence (P01111 whole entry Q61K): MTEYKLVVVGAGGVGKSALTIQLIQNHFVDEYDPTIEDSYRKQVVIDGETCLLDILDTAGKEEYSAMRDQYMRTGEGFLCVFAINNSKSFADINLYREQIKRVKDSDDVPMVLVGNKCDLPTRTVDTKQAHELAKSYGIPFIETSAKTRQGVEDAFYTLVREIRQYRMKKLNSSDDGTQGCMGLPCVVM
# Sequence (P62937 whole entry): as the sequence (P62937 whole entry) above
# experiment: Ras-Raf (BRAF RBD) disruption / FRET / MOA assay, NRAS Q61K
# Assay type: biochemical
# appliedConditions: NRAS Q61K; Ras-Raf disruption/FRET/MOA assay; read-out: IC50* NRAS Q61K FRET data
pIC50: −log10 of the molar value.

In the examples that follow, each entry is paired with its recorded pIC50.
In plain terms, C=CC(=O)N1CC2(COCCN2C(=O)N(C)[C@H](C(=O)N[C@H]2Cc3nc(cs3)-c3ccc4c(c3)c(c(-c3cccnc3[C@H](C)OC)n4CC)CC(C)(C)COC(=O)[C@@H]3CCCN(N3)C2=O)C(C)C)C1 (atropisomer, axis not shown) has a documented pIC50 of 5.00 to 6.00

In plain terms, C=CC(=O)N1CC[C@H](C(=O)N(C)[C@H](C(=O)N[C@H]2Cc3cc(CF)cc(c3)-c3ccc4c(c3)c(c(-c3cccnc3[C@H](C)OC)n4CC)CC(C)(C)COC(=O)[C@@H]3CCCN(N3)C2=O)C(C)C)C1 (atropisomer, axis not shown) has a documented pIC50 of 5.00 to 6.00

In plain terms, CCn1c(-c2cccnc2[C@H](C)OC)c2c3cc(ccc31)-c1cc(CF)cc(c1)C[C@H](NC(=O)[C@@H](COC1CN(C(=O)C#CC(C)(C)N(C)C)C1)C(C)C)C(=O)N1CCC[C@H](N1)C(=O)OCC(C)(C)C2 (atropisomer, axis not shown) has a documented pIC50 of < 5.00

In plain terms, CO[C@@H](C)c1ncccc1-c1c2c3cc(ccc3n1CC(F)(F)F)-c1cc(cc(C(F)F)c1)C[C@H](NC(=O)[C@H](C(C)C)N(C)C(=O)[C@H]1CCN(C(=O)C#CC(C)(C)N3CCC3)C1)C(=O)N1CCC[C@H](N1)C(=O)OCC(C)(C)C2 (atropisomer, axis not shown) has a documented pIC50 of 5.00 to 6.00

In plain terms, CCn1c(-c2cccnc2[C@H](C)OC)c2c3cc(ccc31)-c1cccc(c1)C[C@H](NC(=O)[C@H](C(C)C)N(C)C(=O)N1CCC13CN(C(=O)C#CC(C)(C)N(C)C)C3)C(=O)N1CCC[C@H](N1)C(=O)OCC(C)(C)C2 has a documented pIC50 of 6.00 to 7.00

---
In plain terms, C=CS(=O)(=O)N1CCC(C(=O)N(C)[C@H](C(=O)N[C@H]2Cc3cccc(c3)-c3ccc4c(c3)c(c(-c3cncnc3)n4CC)CC(C)(C)COC(=O)[C@@H]3CCCN(N3)C2=O)C(C)C)C1 (single isomer, unassigned) has a documented pIC50 of < 5.00

In plain terms, CCn1c(-c2cccnc2[C@H](C)OC)c2c3cc(ccc31)-c1csc(n1)C[C@H](NC(=O)[C@H](C(C)C)N(C)C(=O)N1CCC13CN(C(=O)C#CC(C)(C)N(C)C)C3)C(=O)N1CCC[C@H](N1)C(=O)OCC(C)(C)C2 (atropisomer, axis not shown) has a documented pIC50 of 6.00 to 7.00

In plain terms, CC#CC(=O)N1CC2(CCN2C(=O)N(C)[C@H](C(=O)N[C@H]2Cc3nc(cs3)-c3ccc4c(c3)c(c(-c3cccnc3[C@H](C)OC)n4CC)CC(C)(C)COC(=O)[C@@H]3CCCN(N3)C2=O)C(C)C)C1 (atropisomer, axis not shown) has a documented pIC50 of 7.00 to 8.00
